Entry source: BindingDB's records for doi:10.1016/j.ejmech.2020.112861

Test system: Bromodomain-containing protein 4 (Homo sapiens, UniProt O60885)
Assay remarks: Binding affinity to human BRD4 bromodomain1 by isothermal titration calorimetry
Endpoint: Kd (nM)

>  <Test smiles>
Cc1noc(C)c1-c1ccc2c(c1)nc(CCc1ccccc1)n2CCN1CCOCC1

>  <Test system>
Bromodomain-containing protein 4 (Homo sapiens, UniProt O60885)

>  <Recorded number>
950

$$$$
